- TARGET_UNDER_TEST: Bcat-Halo (UniProt P35222)
- Sequence (P35222 whole entry): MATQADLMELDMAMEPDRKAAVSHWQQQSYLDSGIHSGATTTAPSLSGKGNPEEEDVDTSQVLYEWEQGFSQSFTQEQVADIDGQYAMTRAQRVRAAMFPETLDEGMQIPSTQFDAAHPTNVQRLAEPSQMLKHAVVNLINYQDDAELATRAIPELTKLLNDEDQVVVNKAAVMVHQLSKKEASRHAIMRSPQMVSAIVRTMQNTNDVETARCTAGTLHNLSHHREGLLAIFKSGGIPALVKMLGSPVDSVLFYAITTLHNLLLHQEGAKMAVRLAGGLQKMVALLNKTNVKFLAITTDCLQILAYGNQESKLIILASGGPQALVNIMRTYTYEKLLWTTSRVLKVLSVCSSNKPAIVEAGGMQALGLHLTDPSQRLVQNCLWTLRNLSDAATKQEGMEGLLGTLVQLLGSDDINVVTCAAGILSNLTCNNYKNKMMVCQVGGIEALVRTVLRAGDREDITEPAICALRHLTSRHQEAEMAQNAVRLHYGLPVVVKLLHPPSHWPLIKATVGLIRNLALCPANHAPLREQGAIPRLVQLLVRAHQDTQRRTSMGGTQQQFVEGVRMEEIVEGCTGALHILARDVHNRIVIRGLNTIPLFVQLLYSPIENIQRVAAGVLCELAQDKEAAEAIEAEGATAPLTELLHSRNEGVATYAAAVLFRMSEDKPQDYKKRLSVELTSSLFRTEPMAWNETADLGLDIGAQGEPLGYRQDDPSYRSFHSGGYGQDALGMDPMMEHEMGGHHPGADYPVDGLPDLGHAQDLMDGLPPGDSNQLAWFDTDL
- ASSAY_DETAILS: NanoBRET Abs IC50, HEK293 cells, Bcat-Halo / TCF4-Luc
Starred links: 1 amine or outer side, 2 acyl side, 3 side chain; linkers in the order of their positions; H or OH if unused. Positions of bridges follow the written chain, without caps; N, C: chain ends. Non-standard residues stand in square brackets, D forms with d. Primed or numbered codes have the meaning given here. PyrS2″ = (S)-3-amino-1-((pent-4-en-1-yloxy)carbonyl)pyrrolidine-3-carboxylic acid (stapling residue), C=CCCCOC(=O)N1CC[C@@](N[*:1])(C(=O)[*:2])C1; B5(4) = 2,2-bis(4-pentenyl)glycine = 2-amino-2-(pent-4-en-1-yl)hept-6-enoic acid (stitching residue), C=CCCCC(CCCC=C)(N[*:1])C(=O)[*:2]; PyrS2 = (S)-3-amino-1-((pent-4-en-1-yloxy)carbonyl)pyrrolidine-3-carboxylic acid, C=CCCCOC(=O)N1CC[C@@](N[*:1])(C(=O)[*:2])C1; 5IndA = (S)-2-amino-3-(2,3-dihydro-1H-inden-5-yl)propanoic acid, O=C([C@H](Cc1ccc2c(c1)CCC2)N[*:1])[*:2]; Phe(3-COOH) = N[C@@H](Cc1cccc(C(=O)O)c1)C(=O)O; Phe(2-CF3) = N[C@@H](Cc1ccccc1C(F)(F)F)C(=O)O; Phe(3,4-Me2) = Cc1ccc(C[C@H](N)C(=O)O)cc1C; αAllylPro = C=CC[C@@]1(C(=O)O)CCCN1; tBuAla = CC(C)(C)C[C@H](N)C(=O)O; 3Thi = N[C@@H](Cc1ccsc1)C(=O)O
RECORDED_ENDPOINT: pIC50
On this scale, pIC50 is minus log10 of a concentration expressed in M (mol/L).

Completed entries (count: 2):
BINDER: Ac-[αAllylPro]D[tBuAla][B5(4)]D[Phe(3-COOH)]QAFV[PyrS2][3Thi][5IndA]A-NH2 (staple 1-4, 4-11) [I-2296]
RESULT_NUMBER: 5.29
--
BINDER: Ac-[αAllylPro]D[tBuAla][B5(4)]D[Phe(3-COOH)]QAFL[PyrS2″][Phe(2-CF3)][5IndA]A-NH2 (staple 1-4, 4-11) [I-2298]
RESULT_NUMBER: 5.34

Need pIC50, item Ac-[αAllylPro]D[tBuAla][B5(4)]D[Phe(3-COOH)]QAFL[PyrS2][Phe(2-CF3)][Phe(3,4-Me2)]A-NH2 (staple 1-4, 4-11) [I-2294]
5.34
